- Tested on: PBMC from allergic donors
- EXPERIMENT_DESCRIPTION: IL-5 ELISPOT with extract-stimulated short-term lines
- Format: cell-based, human
- RUN_CONDITIONS: positive donor/peptide response; each table line is one donor
PROPERTY_MEASURED: Response (SFC/10^6) IL-5

[[record]]
compound = "C[C@H](NC(=O)[C@@H](NC(=O)[C@H](C)NC(=O)[C@H](C)NC(=O)[C@H](C)NC(=O)[C@@H]1CCCN1C(=O)[C@@H](NC(=O)[C@H](C)NC(=O)[C@@H](NC(=O)[C@H](C)NC(=O)[C@H](Cc1ccc(O)cc1)NC(=O)[C@H](C)NC(=O)[C@H](C)NC(=O)[C@H](C)NC(=O)[C@@H]1CCCN1)[C@@H](C)O)[C@@H](C)O)[C@@H](C)O)C(=O)O [3324.1184]"
measurement_target = "PBMC from allergic donors"
property_measured = "Response (SFC/10^6) IL-5"
reported_result = 1637


* * *

- System: PBMC from allergic donors
- EXPERIMENT_DESCRIPTION: Dual ELISPOT, total IL-5 and IFN-γ response (SFC)
- Type: cell-based, human
- RUN_CONDITIONS: sum of IFNg and IL-5; one donor per table line
In this section, each of the substances is paired with its reported Response (SFC/10^6) Total.
PROPERTY_MEASURED: Response (SFC/10^6) Total

[[record]]
substance = "3324.0993 (VKFRMIAGQEPVHNW)"
property_measured = "Response (SFC/10^6) Total"
unit_label = "SFC/10^6"
reported_result = 92

[[record]]
substance = "3324.1550 (GVTVKKTNQALIFGI)"
property_measured = "Response (SFC/10^6) Total"
unit_label = "SFC/10^6"
reported_result = 93

[[record]]
substance = "3324.0992 (DALVMIDSHDLRVGH)"
property_measured = "Response (SFC/10^6) Total"
unit_label = "SFC/10^6"
reported_result = 290

[[record]]
substance = "3324.0379 (TNFEIEASFGVEASE)"
property_measured = "Response (SFC/10^6) Total"
unit_label = "SFC/10^6"
reported_result = 1113

[[record]]
substance = "3324.0354 (GIKYMVIQGEAGAVI)"
property_measured = "Response (SFC/10^6) Total"
unit_label = "SFC/10^6"
reported_result = 350

[[record]]
substance = "3324.0348 (RAVESYLLAHSDAYN)"
property_measured = "Response (SFC/10^6) Total"
unit_label = "SFC/10^6"
reported_result = 293

[[record]]
substance = "3324.0991 (PRVMSSYFWNQIIKD)"
property_measured = "Response (SFC/10^6) Total"
unit_label = "SFC/10^6"
reported_result = 152

[[record]]
substance = "3324.1001 (RKDLDIFEQYNLEMA)"
property_measured = "Response (SFC/10^6) Total"
unit_label = "SFC/10^6"
reported_result = 117

[[record]]
substance = "3324.0619 (GPCLFMRKVSHVILH)"
property_measured = "Response (SFC/10^6) Total"
unit_label = "SFC/10^6"
reported_result = 687

[[record]]
substance = "3324.0384 (VKAFKQVDVVISTVG)"
property_measured = "Response (SFC/10^6) Total"
unit_label = "SFC/10^6"
reported_result = 1007


* * *

- Test system: PBMC from allergic donors
- EXPERIMENT_DESCRIPTION: Dual ELISPOT, total IL-5 and IFN-γ response (SFC)
- Type: cell-based, human
- RUN_CONDITIONS: sum of IFNg and IL-5; one donor per table line
Note: every record was labeled by where its Response (SFC/10^6) Total sits among bucket A: < 200 SFC/10^6; bucket B: ≥ 200 SFC/10^6 and < 400 SFC/10^6; bucket C: ≥ 400 SFC/10^6

[[record]]
substance = "3324.1102 (DTCRARFITKLSEFI)"
category_label = "bucket A"

[[record]]
substance = "3324.0997 (GELALFYLQEQINHF)"
category_label = "bucket C"

[[record]]
substance = "3324.0356 (GLHLGGIKYMVIQGE)"
category_label = "bucket C"

[[record]]
substance = "3324.0612 (TISNNHFFNHHKVML)"
category_label = "bucket C"

[[record]]
substance = "3324.1130 (LISVEEFQTMMTSEM)"
category_label = "bucket A"

[[record]]
substance = "3337.0028 (EPIAPYHFDLSGHAF)"
category_label = "bucket B"

[[record]]
substance = "3324.0918 (NAMDEIIKSTDAEPA)"
category_label = "bucket B"

[[record]]
substance = "3324.1129 (ELADILRSLGSDVGE)"
category_label = "bucket B"

[[record]]
substance = "3324.0633 (MLAVVAVVLASMVGG)"
category_label = "bucket B"

[[record]]
substance = "3324.0940 (QQYDIKYTWNVPKIA)"
category_label = "bucket C"

[[record]]
substance = "3324.0914 (FAFGYFNGRILGVCP)"
category_label = "bucket A"

[[record]]
substance = "3324.0894 (NGKLHLSLIDPSTLS)"
category_label = "bucket C"

[[record]]
substance = "3324.0622 (DKSMKVTVAFNQFGP)"
category_label = "bucket A"


* * *

- Test system: PBMC from allergic donors
- EXPERIMENT_DESCRIPTION: IL-5 ELISPOT with extract-stimulated short-term lines
- Format: cell-based, human
- RUN_CONDITIONS: positive donor/peptide response; each table line is one donor
Catalogue of Response (SFC/10^6) IL-5 readings, one per entry.
PROPERTY_MEASURED: Response (SFC/10^6) IL-5

[[record]]
substance = "3324.1179 (FTVFENTFNNAIKVS)"
property_measured = "Response (SFC/10^6) IL-5"
unit_label = "SFC/10^6"
reported_result = 87

[[record]]
substance = "3324.1599 (EKVKIERLHPYITLY)"
property_measured = "Response (SFC/10^6) IL-5"
unit_label = "SFC/10^6"
reported_result = 260

[[record]]
substance = "3324.1170 (FLAVALVAGPAASYA)"
property_measured = "Response (SFC/10^6) IL-5"
unit_label = "SFC/10^6"
reported_result = 63

[[record]]
substance = "3324.1596 (AAEFGTVDSATLIVE)"
property_measured = "Response (SFC/10^6) IL-5"
unit_label = "SFC/10^6"
reported_result = 3003

[[record]]
substance = "3324.1196 (AALTKAITAMTQAQK)"
property_measured = "Response (SFC/10^6) IL-5"
unit_label = "SFC/10^6"
reported_result = 998

[[record]]
substance = "3324.1608 (IAIALLFLRDAKPEP)"
property_measured = "Response (SFC/10^6) IL-5"
unit_label = "SFC/10^6"
reported_result = 97

[[record]]
substance = "3324.1181 (VDAAYRTAATAANAA)"
property_measured = "Response (SFC/10^6) IL-5"
unit_label = "SFC/10^6"
reported_result = 383

[[record]]
substance = "3324.1609 (SFGIILLQLLTARPP)"
property_measured = "Response (SFC/10^6) IL-5"
unit_label = "SFC/10^6"
reported_result = 103

[[record]]
substance = "3324.1602 (RTIFFDAYLGTSYVI)"
property_measured = "Response (SFC/10^6) IL-5"
unit_label = "SFC/10^6"
reported_result = 433

[[record]]
substance = "3324.1601 (GANLIVSNSAPRPDG)"
property_measured = "Response (SFC/10^6) IL-5"
unit_label = "SFC/10^6"
reported_result = 147

[[record]]
substance = "3324.1191 (DKFTVFESAFNKALN)"
property_measured = "Response (SFC/10^6) IL-5"
unit_label = "SFC/10^6"
reported_result = 97

[[record]]
substance = "3324.1594 (SDYFVGANLIVSNSA)"
property_measured = "Response (SFC/10^6) IL-5"
unit_label = "SFC/10^6"
reported_result = 920

[[record]]
substance = "3324.1592 (LGRAWFEAARVVFSY)"
property_measured = "Response (SFC/10^6) IL-5"
unit_label = "SFC/10^6"
reported_result = 1430

[[record]]
substance = "3324.1640 (VTAFGFDLVRGTKTL)"
property_measured = "Response (SFC/10^6) IL-5"
unit_label = "SFC/10^6"
reported_result = 73

[[record]]
substance = "3324.1630 (TKLDDEIKSWLAFAA)"
property_measured = "Response (SFC/10^6) IL-5"
unit_label = "SFC/10^6"
reported_result = 87

[[record]]
substance = "3324.1562 (DKFTVFEAAFNNAIK)"
property_measured = "Response (SFC/10^6) IL-5"
unit_label = "SFC/10^6"
reported_result = 183

[[record]]
substance = "3324.1632 (VIAELKAAGASTIQF)"
property_measured = "Response (SFC/10^6) IL-5"
unit_label = "SFC/10^6"
reported_result = 313

[[record]]
substance = "3324.1558 (NYLALLVKYVTGDGD)"
property_measured = "Response (SFC/10^6) IL-5"
unit_label = "SFC/10^6"
reported_result = 80

[[record]]
substance = "3324.1625 (GFYLQWAVHSFRITN)"
property_measured = "Response (SFC/10^6) IL-5"
unit_label = "SFC/10^6"
reported_result = 143

[[record]]
substance = "3324.1606 (KIAAEIAIALLFLRD)"
property_measured = "Response (SFC/10^6) IL-5"
unit_label = "SFC/10^6"
reported_result = 90

[[record]]
substance = "3337.0044 (IKLVKSSRPDCSEIP)"
property_measured = "Response (SFC/10^6) IL-5"
unit_label = "SFC/10^6"
reported_result = 233

[[record]]
substance = "3324.1178 (EVKYTVSETALKKAV)"
property_measured = "Response (SFC/10^6) IL-5"
unit_label = "SFC/10^6"
reported_result = 333

[[record]]
substance = "3324.1183 (LKKAVTAMSEAEKEA)"
property_measured = "Response (SFC/10^6) IL-5"
unit_label = "SFC/10^6"
reported_result = 128

[[record]]
substance = "3324.1600 (EYIEAAKWLLPPPKV)"
property_measured = "Response (SFC/10^6) IL-5"
unit_label = "SFC/10^6"
reported_result = 980

[[record]]
substance = "3324.1603 (DAYLGTSYVIVIKEP)"
property_measured = "Response (SFC/10^6) IL-5"
unit_label = "SFC/10^6"
reported_result = 290

[[record]]
substance = "3324.1186 (TNKAFVEGLASGYAD)"
property_measured = "Response (SFC/10^6) IL-5"
unit_label = "SFC/10^6"
reported_result = 287

[[record]]
substance = "3324.1593 (FEAARVVFSYCNLSD)"
property_measured = "Response (SFC/10^6) IL-5"
unit_label = "SFC/10^6"
reported_result = 363

[[record]]
substance = "3324.0099 (MKNIFMLTLFILIIT)"
property_measured = "Response (SFC/10^6) IL-5"
unit_label = "SFC/10^6"
reported_result = 57

